Recorded values, source patent US10017506B2.

Molecular target: Human ATX protein (Homo sapiens)
Construct: made in house
Assay: ATX biochemical FRET assay with FS-3 substrate
Settings: FRET substrate FS-3 2 μM, ATX 1.0 μg/mL, 30 minutes pre-incubation, 2 hours at room temperature; read-out: IC50
pIC50: −log10 of the molar value.
ENDPOINT: pIC50

> print(dat)
                                   compound  experimental.result
1  CC[C@H]1CC[C@@H](Oc2ccc3ccc([C@@H](C)N[C@@H]4C[C@@H](C(=O)O)C4(C)C)cc3c2C(F)(F)F)CC1 [Example 117c]               ≥ 7.00
2  CC(c1ccc2ccc(O[C@H]3CC[C@@H](C)CC3)c(C(F)(F)F)c2c1)N1CCC(C(=O)O)CC1 (some centres unmarked)               ≥ 6.60
3  CC[C@H]1CC[C@@H](Oc2ccc3ccc(C(C)N4CCC(C(=O)O)CC4)cc3c2C(F)(F)F)CC1 (some centres unmarked)               ≥ 7.00
4  CC(C)[C@H]1CC[C@@H](Oc2ccc3ccc(CN4CCC(C(=O)O)CC4)cc3c2C(F)(F)F)CC1               ≥ 6.30

QUERY: Requested field: pIC50. Item: CC[C@H]1CC[C@@H](Oc2ccc3ccc(C(C)NC4CCC(C(=O)O)C4)cc3c2C(F)(F)F)CC1 (some centres unmarked)
RESULT: ≥ 7.00

QUERY: Requested field: pIC50. Item: CC[C@H]1CC[C@@H](Oc2ccc3ccc(CN4CCC[C@H](CC(=O)O)C4)cc3c2C(F)(F)F)CC1
RESULT: ≥ 6.30

QUERY: Requested field: pIC50. Item: CC(c1ccc2ccc(O[C@H]3CC[C@@H](C(F)(F)F)CC3)c(C(F)(F)F)c2c1)N1CCC(C(=O)O)CC1 (some centres unmarked)
RESULT: ≥ 7.00

QUERY: Requested field: pIC50. Item: O=C(O)CC1CCC(NCc2ccc3ccc(O[C@H]4CC[C@@H](C(F)(F)F)CC4)c(C(F)(F)F)c3c2)CC1 (some centres unmarked)
RESULT: ≥ 6.30

QUERY: Requested field: pIC50. Item: CC(c1ccc2ccc(O[C@H]3CC[C@@H](C(F)(F)F)CC3)c(C(F)(F)F)c2c1)N1CCC[C@H](CC(=O)O)C1 (some centres unmarked)
RESULT: ≥ 6.60

QUERY: Requested field: pIC50. Item: O=C(O)C1CCC(NCc2ccc3ccc(O[C@H]4CC[C@@H](C(F)(F)F)CC4)c(C(F)(F)F)c3c2)C1 (some centres unmarked)
RESULT: ≥ 6.30

QUERY: Requested field: pIC50. Item: CC[C@H]1CC[C@@H](Oc2ccc3ccc([C@@H](C)N[C@H]4CC[C@@H](C(=O)O)CC4)cc3c2C(F)(F)F)CC1 [Example 135b]
RESULT: ≥ 6.60

QUERY: Requested field: pIC50. Item: CC[C@H]1CC[C@@H](Oc2ccc3ccc(C(C)N4CCC(C(=O)O)CC4)cc3c2C#N)CC1 (some centres unmarked)
RESULT: ≥ 6.30

QUERY: Requested field: pIC50. Item: O=C(O)[C@H]1CC[C@H](NCc2ccc3ccc(O[C@H]4CC[C@@H](C(F)(F)F)CC4)c(C(F)(F)F)c3c2)CC1
RESULT: ≥ 6.30

QUERY: Requested field: pIC50. Item: CCC(c1ccc2ccc(O[C@H]3CC[C@@H](CC)CC3)c(C(F)(F)F)c2c1)N1CCC(C(=O)O)CC1 (some centres unmarked)
RESULT: ≥ 6.60
